Where these numbers come from: ChEMBL document CHEMBL1857833

Test system: Trypanosoma brucei
Experiment: DNDI: Inhibition of Human African Trypanosomiasis, Cross 22, in vitro
Format: functional, organism-based
# note: exactly 0.6 µg/mL is not below, so it is rule not met; use rule met for IC50 strictly under it

Below, 3 compounds whose answers are already recorded.
CC1CC(NCc2coc(-c3ccc(-c4ccccc4)cc3)n2)CC(C)(C)C1 (stereo not drawn) :: rule met
C[C@@H]1[C@H]2C[C@@H](C[C@H]1NCc1coc(-c3ccc(Br)cc3)n1)C2(C)C :: rule not met
CC1(C)[C@H]2CC[C@@H](CNCc3coc(-c4ccc(-c5ccccc5)cc4)n3)[C@@H]1C2 :: rule not met

Data request: Please determine if C[C@@H]1[C@H]2C[C@@H](C[C@H]1NCc1coc(-c3ccc(-c4ccccc4)cc3)n1)C2(C)C is below 0.6 µg/mL in terms of IC50.
Data returned: rule met

Data request: Threshold test, IC50 < 0.6 µg/mL: CCCCOc1ccc(-c2nc(CNC[C@@H]3CC[C@H]4C[C@@H]3C4(C)C)co2)cc1
Data returned: rule not met

Data request: IC50 strictly < 0.6 µg/mL for this compound? c1ccc(-c2ccc(-c3nc(CNC4[C@H]5C[C@@H]6C[C@@H](C[C@H]4C6)C5)co3)cc2)cc1 (stereo partly drawn)
Data returned: rule not met

Data request: Decide: IC50 of CCOc1ccc(-c2nc(CNC3[C@H]4C[C@@H]5C[C@@H](C[C@H]3C5)C4)co2)cc1 (stereo partly drawn) strictly below 0.6 µg/mL?
Data returned: rule not met

Data request: Record CCOc1ccc(-c2nc(CNC[C@@H]3CC[C@H]4C[C@@H]3C4(C)C)co2)cc1 : is its IC50 strictly below 0.6 µg/mL?
Data returned: rule not met

* * *

Conditions: mouse, microsomes, 1 µM
Description: DNDI: in vitro intrinsic clearance in mouse liver microsomes at a concentration of 1uM
Label YES for high-side CLint in vitro (at or above 90 µL/min/mg) and NO for low-side CLint in vitro (below it).

Before answering, review these 3 worked examples.
CCOCCCNC(c1nc(-c2ccccc2)c(N2CCCCC2)o1)C(C)CC (stereo not given) :: YES
COc1ccc(/C(=N/O)NC2CCCCC2)cc1 :: YES
CCCCCC(C)NCc1coc(-c2ccc(Oc3ccc(F)cc3)cc2)n1 (stereo not given) :: NO

Data request: Could you tell me if the measured CLint in vitro of CCCCCC(C)NCc1coc(-c2ccc(CCCC)cc2)n1 (stereo not given) reaches 90 µL/min/mg or more?
Data returned: NO

Data request: Reported CLint in vitro at or above 90 µL/min/mg? Cc1ccc(CNC(c2nc(Cc3ccccc3)c(N3CCOCC3)o2)C2CCCCC2)cc1 (stereo not given)
Data returned: YES

Data request: Kindly determine if CLint in vitro recorded for COc1ccc(/C(=N/O)Nc2cccc(C(F)(F)F)c2)cc1 is above or exactly 90 µL/min/mg.
Data returned: YES

Data request: Assess whether reported CLint in vitro for CCCCCC(C)NCc1coc(-c2ccc(C3CCCCC3)cc2)n1 (stereo not given) sits at 90 µL/min/mg or higher.
Data returned: NO

Data request: Confirm if CLint in vitro reported for the molecule CCCCc1ccc(-c2nc(CNCc3cccnc3)co2)cc1 is 90 µL/min/mg or above.
Data returned: NO

Data request: Could you verify whether the entry CCOc1ccc(-c2nc(CNC3CCCCCC3)co2)cc1 shows CLint in vitro of no less than 90 µL/min/mg?
Data returned: NO
